Source: patent US10253076B2

- test-target: HLA-A*02:01 (Homo sapiens, UniProt P04439, D140Y/D185E/D98H/E176V/E277Q/G131W/G231S/I119V/I121R/I166T/I218V/L300P/L318F/N151K/N90K/P208A/P217A/Q86G/Q94H/R138H/R169H/T345S)
- protocol-text: MHC binding assay (UV-ligand exchange, beta2m ELISA, peptide exchange yield)
- test-parameters: binding of HLA-class I restricted peptides to HLA-A*02:01, ranged by peptide exchange yield (UV-ligand exchange, β2m ELISA)
observation-type: Peptide exchange

As a guide, the following entries are already answered.
452 (ILLEHGADPNL; listed as Homo sapiens) [compound 452] ... ″+++″ (≥50% = +++)
326 (FLPEALDFV; listed as Homo sapiens) [compound 326] ... ″+++″ (≥50% = +++)
595 (VLLSIYPRV; listed as Homo sapiens) [compound 595] ... ″+++″ (≥50% = +++)
257 (SIFSAFLSV; listed as Homo sapiens) [compound 257] ... ″+++″ (≥50% = +++)
328 (ALNDQVFEI; listed as Homo sapiens) [compound 328] ... ″+++″ (≥50% = +++)
475 (LLLNEEALAQI; listed as Homo sapiens) [compound 475] ... ″+++″ (≥50% = +++)
374 (FLLQQHLISA; listed as Homo sapiens) [compound 374] ... ″++″ (≥20% = ++)

Data request: Which measured Peptide exchange value corresponds to 455 (SLLKEPQKVQL; listed as Homo sapiens) [compound 455] ?
Data returned: ″++″ (≥20% = ++)
